Biological target: eOD-GT8 (monomeric ligand) (Human immunodeficiency virus 1, …)
reported_endpoint: pKd
Bear in mind: pKd is minus log10 of a mol/L concentration; give just that figure.

// returns reported pKd for input g5-D78-2_CLK19 (antibody, V domains shown) VH: QVQLVQSGAEVKKPGASVKVSCKTSGYTFTGYFLHWVRQAPGQGLEWMGWINPNSGGINYAQKFQGRVTMTRDTSINTAYMELSRLRSDDTAVYYCTPVLTNFRWPFAFWGQGTLVTVSS VL: DIQMTQSPSSLSASVGDRVTITCQASQDIKNYLNWYQQKPGTAPKLLIYDTSNLETGVPSRFSGRGSGTDFTFTISSLQPEDIATYYCQQYETFGPGTKVDIK 9.38

// returns reported pKd for input g28-D78-18_CLK09 (antibody, V domains shown) VH: QVQLVQSGAEVKKPGASVKVSCKASGYTFTDYHIHWVRQAPGQGLEWMGWVNPYHGGTNYAQIFQGRVTMTRDTSISTAYMELSRLRSDDTAVYYCALWFGEKKTFDIWGQGTMVTVSS VL: DIQMTQSPSSLSASVGDRVTITCQASQGISNFLNWFQQKPGKAPKLLIYDVSNLETGVPSRFSGSGSGTDFTFTISSLQPEDIATYYCQQYEFFGGGTKVEIK 7.09

// returns reported pKd for input g5-D78-20_CLK19 (antibody, V domains shown) VH: QVQLVQSGAEVKKPGASVKVSCKASGYIFTDYNMHWVRQAPGQGLEWMAWINPRSGGRNIVQKFQGRVTMTRDTSISTAFMELSGLRSDDTAVYFCTPVLAPFRWRFAYWGQGTLVTVSS VL: DIQMTQSPSSLSASVGDRVTITCQASQDINYLNWYQQKPGKAPKLLIYDASNLETGVPSRFSGSGSGTDFTFTISSLQPENIATYYCQQYAAFGPGTKVDIK 8.47
